protocol.summary: Fecal excretion study in rats after oral NS, SF or CNS (LC–MS/MS)
Assay type: in vivo
condition.context: rat feces, oral NS 60 mg/kg, 120 h
Task for the reader: assign each of the following compounds its reported Excretion amount.
One number for each entry, in µg.

What does the record list as Excretion amount for CC(C)=CCC[C@](C)(O[C@@H]1O[C@H](CO[C@@H]2O[C@H](CO)[C@@H](O)[C@H](O)[C@H]2O)[C@@H](O)[C@H](O)[C@H]1O)[C@H]1CC[C@]2(C)[C@@H]1[C@H](O)C[C@@H]1[C@@]3(C)CC[C@H](O[C@@H]4O[C@H](CO)[C@@H](O)[C@H](O)[C@H]4O[C@@H]4O[C@H](CO)[C@@H](O)[C@H](O)[C@H]4O)C(C)(C)[C@@H]3CC[C@]12C [ginsenoside Rb1] ?
0.252

Go through the list and state Excretion amount for each entry.
1. CC(C)=CCC[C@](C)(O[C@@H]1O[C@H](CO)[C@@H](O)[C@H](O)[C@H]1O)[C@H]1CC[C@]2(C)[C@@H]1[C@H](O)C[C@@H]1[C@@]3(C)CC[C@H](O)C(C)(C)[C@@H]3[C@@H](O[C@@H]3O[C@H](CO)[C@@H](O)[C@H](O)[C@H]3O[C@@H]3O[C@@H](C)[C@H](O)[C@@H](O)[C@H]3O)C[C@]12C [ginsenoside Re]
2. CC(C)=CCC[C@](C)(O[C@@H]1O[C@H](CO)[C@@H](O)[C@H](O)[C@H]1O)[C@H]1CC[C@]2(C)[C@@H]1[C@H](O)C[C@@H]1[C@@]3(C)CC[C@H](O)C(C)(C)[C@@H]3[C@@H](O[C@@H]3O[C@H](CO)[C@@H](O)[C@H](O)[C@H]3O)C[C@]12C [ginsenoside Rg1]
3. CC(C)=CCC[C@](C)(O[C@@H]1O[C@H](CO)[C@@H](O)[C@H](O)[C@H]1O)[C@H]1CC[C@]2(C)[C@@H]1[C@H](O)C[C@@H]1[C@@]3(C)CC[C@H](O[C@@H]4O[C@H](CO)[C@@H](O)[C@H](O)[C@H]4O[C@@H]4O[C@H](CO)[C@@H](O)[C@H](O)[C@H]4O)C(C)(C)[C@@H]3CC[C@]12C [ginsenoside Rd]

1: 0.252; 2: 0.315; 3: 0.223
